Taken from patent US12077503B2.

Tested on: Kochia (Kochia scoparia)
Assay Summary: Test A postemergence
Type: in vivo
Condition Info: Postemergence, 500 g ai/ha; 0 to 100 scale where 0 is no effect and 100 is complete control
Parameter Plant response rating, Kochia: see the listing below.

Here is how some compounds turned out for Plant response rating, Kochia.
compound="O=C1NCC(c2cc(F)cc(Cl)c2)C1C(=O)Nc1ccc(F)cc1F (stereo not shown) [Compound 493]" recorded_measurement=20
compound="O=C(Nc1ccccc1F)C1C(=O)N(C2C=CCCC2)CC1c1cccc(C(F)(F)F)c1 (stereo not shown) [Compound 524]" recorded_measurement=0
compound="O=C1NCC(c2ccnc(C(F)(F)F)c2)C1C(=O)Nc1cccc(F)c1F (racemic) [Compound 514]" recorded_measurement=50

# Plant response rating, Kochia (compound: CN1CC(c2cccc(OC(F)F)c2)C(C(=O)Nc2ccccc2F)C1=O (stereo not shown) [Compound 618] ) is 60

# Plant response rating, Kochia (compound: COCc1cccc(C2CNC(=O)C2C(=O)Nc2ccccc2Cl)c1 (stereo not shown) [Compound 498] ) is 0

# Plant response rating, Kochia (compound: CN1CC(c2ccc(C(F)(F)F)cc2F)C(C(=O)Nc2ccccc2S(C)(=O)=O)C1=O (stereo not shown) [Compound 473] ) is 80

# Plant response rating, Kochia (compound: Cc1cc(F)ccc1NC(=O)C1C(=O)N(C)CC1c1cccc(C(F)(F)F)c1 (stereo not shown) [Compound 575] ) is 20

###

Test system: Galium (catchweed bedstraw, Galium aparine)
Assay Summary: Test A postemergence
Assay type: in vivo
Condition Info: Galium, post-emergence, 240 h, 125 g ai/ha, postemergence; visual injury on 0 to 100 scale (0 no effect, 100 complete control), approx. 10 d; read-out: Galium plant response rating
Experimental Readout: pest or weed control at 125 g/ha (%)
# value in %; strip the unit string

Here is how some compounds turned out for pest or weed control at 125 g/ha.
compound=CN1C[C@H](c2ccc(C(F)(F)F)cn2)[C@@H](C(=O)Nc2cccc(F)c2F)C1=O recorded_measurement=70
compound="COCc1ccccc1NC(=O)[C@H]1C(=O)N(C)C[C@@H]1c1cccc(C(F)(F)F)c1 (racemic)" recorded_measurement=40

# pest or weed control at 125 g/ha (compound: COc1cccc([C@H]2CN(C)C(=O)[C@@H]2C(=O)Nc2cccc(F)c2F)c1 ) is 50

# pest or weed control at 125 g/ha (compound: CSc1ccccc1NC(=O)[C@H]1C(=O)NC[C@@H]1c1ccc(C)c(C)c1 ) is 20

# pest or weed control at 125 g/ha (compound: Cc1cc([C@H]2CN(C)C(=O)[C@@H]2C(=O)Nc2cccc(F)c2F)ccc1Br ) is 50

# pest or weed control at 125 g/ha (compound: CC(C)Oc1ccc([C@H]2CNC(=O)[C@@H]2C(=O)Nc2ccccc2F)cc1 ) is 0

###

Parameter pest or weed control at 125 g/ha: see the listing below.
Tested on: giant foxtail (Setaria faberii)
Assay Summary: Test A preemergence
Format: in vivo
Condition Info: Setaria faberi, pre-emergence, 240 h, 125 g ai/ha, preemergence; visual injury rating, 0 to 100 scale where 0 is no effect and 100 is complete control; approximately 10 d; read-out: Foxtail, Giant plant response rating
# value in %; strip the unit string

molecule=CN1C[C@H](c2csc3c2CCC3)[C@@H](C(=O)Nc2cccc(F)c2F)C1=O experimental_readout="pest or weed control at 125 g/ha" recorded_measurement=100
molecule=CN1C[C@H](c2ccc(C#N)cc2)[C@@H](C(=O)Nc2ccccc2F)C1=O experimental_readout="pest or weed control at 125 g/ha" recorded_measurement=80
molecule=Cc1c(F)cccc1NC(=O)[C@H]1C(=O)N(C)C[C@@H]1c1ccc2c(c1)OC(F)(F)O2 experimental_readout="pest or weed control at 125 g/ha" recorded_measurement=90

# pest or weed control at 125 g/ha (compound: Cc1ccc([C@H]2CN(C)C(=O)[C@@H]2C(=O)Nc2ccccc2)cc1 ) is 100

###

Parameter pest or weed control at 250 g/ha: see the listing below.
Test system: rice (Oryra sativa)
Assay Summary: Test B flooded paddy test
Type: in vivo
Condition Info: Oryza sativa, Flood, 250 g ai/ha; scale of 0 to 100 where 0 is no effect and 100 is complete control; read-out: Rice plant response rating
# value in %; strip the unit string

compound="CN1CC(c2cccc(I)c2)C(C(=O)Nc2ccccc2F)C1=O (stereo not shown)" recorded_measurement=0
compound=CN1CC[C@H](c2cccc(C(F)(F)F)c2)[C@@H](C(=O)Nc2ccccc2S(C)(=O)=O)C1=O recorded_measurement=0
compound=COc1cc([C@H]2CN(C)C(=O)[C@@H]2C(=O)Nc2ccccc2F)ccc1C(F)(F)F recorded_measurement=15
compound=O=C(Nc1cccc(F)c1F)[C@H]1C(=O)N(OCc2ccccc2)CC[C@@H]1c1cccc(Cl)c1 recorded_measurement=0
compound=CSc1ccccc1NC(=O)[C@H]1C(=O)NC[C@@H]1c1cccc2c1OC(F)(F)O2 recorded_measurement=30
compound=Cc1cc(F)cc([C@H]2CN(C)C(=O)[C@@H]2C(=O)Nc2ccccc2F)c1 recorded_measurement=0

Field pest or weed control at 250 g/ha (rice (Oryra sativa)), entry CSc1ccccc1NC(=O)[C@H]1C(=O)N(C)C[C@@H]1c1cc(F)cc(F)c1 : 0

Field pest or weed control at 250 g/ha (rice (Oryra sativa)), entry Cc1cc([C@H]2CN(C)C(=O)[C@@H]2C(=O)Nc2ccccc2F)ccc1Cl : 0

Field pest or weed control at 250 g/ha (rice (Oryra sativa)), entry Cc1cc([C@H]2CNC(=O)[C@@H]2C(=O)Nc2ccc(F)cc2F)ccc1Br : 0

Field pest or weed control at 250 g/ha (rice (Oryra sativa)), entry CSc1ccccc1NC(=O)[C@H]1C(=O)N(C)C[C@@H]1c1cc(F)cc(Cl)c1 : 0

Field pest or weed control at 250 g/ha (rice (Oryra sativa)), entry Cc1ccc(NC(=O)[C@H]2C(=O)N(C)C[C@@H]2c2cc(F)cc(F)c2)cc1 : 0

###

Parameter pest or weed control at 250 g/ha: see the listing below.
Tested on: barnyardgrass (Echinochloa crus-galli)
Assay Summary: Test B flooded paddy test
Assay type: in vivo
Condition Info: Echinochloa crus-galli, 250 g ai/ha, Flood; 0 to 100 scale where 0 is no effect and 100 is complete control; read-out: Barnyardgrass plant response rating
# value in %; strip the unit string

Here is how some compounds turned out for pest or weed control at 250 g/ha.
compound="Cc1ccc([C@H]2CNC(=O)[C@@H]2C(=O)Nc2ccccc2F)cc1C [Compound 1033]" experimental_readout="pest or weed control at 250 g/ha" endpoint_unit=% recorded_measurement=50
compound="O=C1NC[C@H](c2ccc(C(F)(F)F)cc2)C1C(=O)Nc1ccccc1CO (stereo partly shown) [Compound 1242]" experimental_readout="pest or weed control at 250 g/ha" endpoint_unit=% recorded_measurement=0
compound="CCc1ccc([C@H]2CNC(=O)[C@@H]2C(=O)Nc2ccccc2SC)cc1 [Compound 1178]" experimental_readout="pest or weed control at 250 g/ha" endpoint_unit=% recorded_measurement=20
compound="Cc1c(F)cccc1NC(=O)[C@H]1C(=O)N(C)C[C@@H]1c1ccc2c(c1)OC(F)(F)O2 [Compound 1252]" experimental_readout="pest or weed control at 250 g/ha" endpoint_unit=% recorded_measurement=65
compound="CSc1ccccc1NC(=O)[C@H]1C(=O)NC[C@@H]1c1ccc(F)c(C#N)c1 [Compound 1201]" experimental_readout="pest or weed control at 250 g/ha" endpoint_unit=% recorded_measurement=0
compound="CN1C[C@H](c2ccc3c(c2)CCO3)[C@@H](C(=O)Nc2ccc(F)c(F)c2F)C1=O [Compound 1323]" experimental_readout="pest or weed control at 250 g/ha" endpoint_unit=% recorded_measurement=90
compound="Cc1ccc([C@H]2CN(C)C(=O)[C@@H]2C(=O)Nc2c(F)c(F)c(F)c(F)c2F)cc1 [Compound 1292]" experimental_readout="pest or weed control at 250 g/ha" endpoint_unit=% recorded_measurement=0
compound="CC(C)COc1cccc([C@H]2CN(C)C(=O)[C@@H]2C(=O)Nc2ccc(F)cc2F)c1 [Compound 1030]" experimental_readout="pest or weed control at 250 g/ha" endpoint_unit=% recorded_measurement=30

# pest or weed control at 250 g/ha (compound: CN1C[C@H](c2csc(C(F)F)c2)[C@@H](C(=O)Nc2cccc(F)c2F)C1=O [Compound 1122] ) is 70

# pest or weed control at 250 g/ha (compound: CN1C[C@H](c2ccc(C(F)(F)F)cc2)[C@@H](C(=O)Nc2cccc(Cl)c2F)C1=O [Compound 1238] ) is 0

# pest or weed control at 250 g/ha (compound: O=C(Nc1ccccc1F)[C@H]1C(=O)N(C2CC2)CC[C@@H]1c1ccccc1 [Compound 1031] ) is 0

# pest or weed control at 250 g/ha (compound: CSc1ccccc1NC(=O)[C@H]1C(=O)N(C2CC2)CC[C@@H]1c1ccc(F)cc1 [Compound 1005] ) is 0

# pest or weed control at 250 g/ha (compound: CSc1ccccc1NC(=O)[C@H]1C(=O)NC[C@@H]1c1ccc2c(c1)OCO2 [Compound 1257] ) is 20

# pest or weed control at 250 g/ha (compound: CN1C[C@H](c2ccc(F)c(Br)c2)[C@@H](C(=O)Nc2cccc(F)c2F)C1=O [Compound 1234] ) is 90

# pest or weed control at 250 g/ha (compound: COc1cc([C@H]2CN(C)C(=O)[C@@H]2C(=O)Nc2ccccc2SC)ccc1F [Compound 1301] ) is 0
